- Measurement target: T1, human αVβ6 integrin on cells (human, UniProt P06756 31-1048; P18564 22-788)
- T1 construct: whole, on cells; Species is stated for K562 and CHO transfectants only
- T1 sequence (P06756 31-1048, chain 1 of 2): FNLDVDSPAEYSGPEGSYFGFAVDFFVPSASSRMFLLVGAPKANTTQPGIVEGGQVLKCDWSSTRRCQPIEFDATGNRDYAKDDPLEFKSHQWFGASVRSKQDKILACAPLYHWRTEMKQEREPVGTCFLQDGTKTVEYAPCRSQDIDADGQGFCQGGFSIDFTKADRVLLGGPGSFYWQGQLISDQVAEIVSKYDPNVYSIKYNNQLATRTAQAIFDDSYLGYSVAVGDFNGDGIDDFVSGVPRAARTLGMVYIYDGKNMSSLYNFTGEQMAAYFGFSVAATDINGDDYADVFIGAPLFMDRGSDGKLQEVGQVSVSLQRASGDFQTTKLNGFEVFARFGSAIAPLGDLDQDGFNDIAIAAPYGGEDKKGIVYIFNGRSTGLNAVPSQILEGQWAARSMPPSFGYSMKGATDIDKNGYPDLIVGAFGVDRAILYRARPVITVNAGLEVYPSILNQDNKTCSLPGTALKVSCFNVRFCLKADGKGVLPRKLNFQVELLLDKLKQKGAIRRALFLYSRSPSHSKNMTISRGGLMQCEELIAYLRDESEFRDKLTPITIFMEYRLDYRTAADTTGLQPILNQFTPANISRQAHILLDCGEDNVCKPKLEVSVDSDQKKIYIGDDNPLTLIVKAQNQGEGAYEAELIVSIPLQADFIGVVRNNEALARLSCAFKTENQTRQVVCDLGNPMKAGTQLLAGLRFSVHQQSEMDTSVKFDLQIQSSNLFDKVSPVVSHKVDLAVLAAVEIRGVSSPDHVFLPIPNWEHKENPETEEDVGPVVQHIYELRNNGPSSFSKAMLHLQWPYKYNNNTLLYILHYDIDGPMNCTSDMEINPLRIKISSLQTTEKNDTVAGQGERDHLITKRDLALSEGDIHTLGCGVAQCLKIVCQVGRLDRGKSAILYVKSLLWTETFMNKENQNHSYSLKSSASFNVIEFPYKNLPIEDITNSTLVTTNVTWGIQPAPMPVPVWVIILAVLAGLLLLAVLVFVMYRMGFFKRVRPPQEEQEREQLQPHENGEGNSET
- T1 sequence (P18564 22-788, chain 2 of 2): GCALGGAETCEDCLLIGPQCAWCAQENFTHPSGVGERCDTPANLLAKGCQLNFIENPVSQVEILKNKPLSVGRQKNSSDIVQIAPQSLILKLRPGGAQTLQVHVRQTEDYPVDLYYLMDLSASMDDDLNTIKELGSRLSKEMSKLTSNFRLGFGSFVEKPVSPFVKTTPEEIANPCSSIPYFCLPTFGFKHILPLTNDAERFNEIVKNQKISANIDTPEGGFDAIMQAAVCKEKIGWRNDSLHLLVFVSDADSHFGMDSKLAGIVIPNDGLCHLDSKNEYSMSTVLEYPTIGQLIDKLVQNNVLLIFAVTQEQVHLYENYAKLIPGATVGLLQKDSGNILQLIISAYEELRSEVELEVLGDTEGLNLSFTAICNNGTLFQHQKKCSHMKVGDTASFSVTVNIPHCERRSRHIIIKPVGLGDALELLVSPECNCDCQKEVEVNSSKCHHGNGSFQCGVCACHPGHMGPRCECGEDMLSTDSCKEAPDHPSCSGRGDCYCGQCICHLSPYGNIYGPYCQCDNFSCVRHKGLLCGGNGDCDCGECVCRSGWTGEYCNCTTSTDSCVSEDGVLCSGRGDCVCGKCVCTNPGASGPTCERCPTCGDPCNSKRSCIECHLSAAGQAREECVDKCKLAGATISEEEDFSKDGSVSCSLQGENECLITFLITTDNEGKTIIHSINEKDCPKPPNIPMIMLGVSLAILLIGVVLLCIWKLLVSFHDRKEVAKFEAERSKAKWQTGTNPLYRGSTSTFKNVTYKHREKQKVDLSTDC
- Protocol details: FMAT, supernatant, HEK 293 cells stably overexpressing αVβ6
Measured metric: FMAT FL1XCount
The reply should be a number, written without any unit.

Illustrative cases are given below, each with its answer.
>>> reported("sc 161 (antibody, V domains shown, kappa light chain) VH: EVQLVQSGAEVKKPGESLKISCKGSGYSFTSYWIGWVRQMPGKGLEWMGIIYPGDSDTRYSPSFQGQVTISADKSISTAYLQWSSLKASDTAMYYCARHGIAAAGFYYYYMDVWGQGTTVTVSS VL: EIVLTQSPDTLSLSPGERASLSCRASQNVNRNYLVWYQQKPGQAPRLLIYGTSNRATGIPDRFSGSGSGTDFTLTISRLEPEDFAVYYCQQCGSLPFTFGPGTKVDIKR")
16700
>>> reported("sc 277 (antibody, V domains shown, lambda light chain) VH: EVQLVQSGAEVKKPGESLKISCKGSGYSFPSYWIGWVRQMPGKGLEWMGIIYPGDSDTRYSPSFQGQVTISADKSISTAYLQWSSLKASDTAMYYCARHPMEDGMDVWGQGTTVTVSS VL: SYELTQPPSVSVSPGQTARITCSGDALPKKYAFWYQQKSGQAPVLVIYDDNKRPSGIPERFSGSSSGTMATLTITGAQVEDEADYYCYSTDSSGHHVFGGGTKLTVL")
10700
>>> reported("sc 254 (antibody, V domains shown, kappa light chain) VH: QVQLQESGPGLVKPSQTLSLTCTVSGGSISSGGYYWSWIRQHPGKGLEWIGYIYYSGSTYYNPSLKSRVTISVDTSKNQFSLKLSSVTAADTAMYYCARYRGPAAGRGDFYYFGMDVWGQGTTVTVSS VL: DIVMTQTPLSLSVTPGQPASIFCKSSQSLLNSDGKTYLCWYLQKPGQPPQLLIYEVSNRFSGVPDRFSGSGSGTDFTLKISRVEAEDVGVYYCMQGIQLPWAFFGQGTKVEIK")
"1.6e+06"

We next turn to a different binder, shown below.
GET /value?item= sc 298 (antibody, V domains shown, lambda light chain) VH: QVQLVESGGGVVQPGRSLRLSCAASGFTFSSYGMHWVRQAPGKGLEWVAVIWYGGSNKYYADSVKGRFTISRDNSKNTLYLQMNSLRAEDTAVYYCARDLAARRGDYYYYGMDVWGQGTTVTVSS VL: SSELTQDPVVSVALGQTVRITCQGDSLRSYYLSWYQQKPGQAPVLVIYGKNNRPSGIPDRFSGSNSGNTASLTITGAQAEDEADYYCNSRDSSGNHLFGGGTKLTVL &field=FMAT FL1XCount returns 218000

Origin of measurements: patent US20160319032A1
